Hi there, I'd appreciate the recorded log k HSA for every entry that follows.
molecular target: human serum albumin (HSA) (Homo sapiens, UniProt P02768); assay: Protein binding on Chiralpak HSA HPLC column; conditions: pH 7.4, Chiralpak HSA
Sequence (P02768 25-609): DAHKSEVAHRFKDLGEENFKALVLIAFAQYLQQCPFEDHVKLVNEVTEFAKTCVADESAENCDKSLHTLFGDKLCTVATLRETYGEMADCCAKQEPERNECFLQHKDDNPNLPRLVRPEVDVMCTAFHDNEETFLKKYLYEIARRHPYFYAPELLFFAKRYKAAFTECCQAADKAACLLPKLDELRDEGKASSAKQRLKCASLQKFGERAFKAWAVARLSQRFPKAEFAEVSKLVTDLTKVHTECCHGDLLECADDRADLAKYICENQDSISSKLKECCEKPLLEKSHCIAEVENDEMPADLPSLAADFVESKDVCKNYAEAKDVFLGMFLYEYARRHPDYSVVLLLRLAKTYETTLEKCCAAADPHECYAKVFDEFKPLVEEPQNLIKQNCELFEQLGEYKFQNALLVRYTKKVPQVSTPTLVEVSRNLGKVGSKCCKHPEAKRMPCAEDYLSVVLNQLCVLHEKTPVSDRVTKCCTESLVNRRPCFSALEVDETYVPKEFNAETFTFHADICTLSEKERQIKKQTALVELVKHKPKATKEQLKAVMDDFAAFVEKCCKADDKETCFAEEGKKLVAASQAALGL
Give bare numbers.

[[record]]
molecule = "COc1cc(Cc2cnc(N)nc2N)cc(OC)c1OC"
target_under_test = "human serum albumin (HSA) (Homo sapiens, UniProt P02768)"
measurement = -0.05

[[record]]
molecule = "CCCCN1CCCC[C@H]1C(=O)Nc1c(C)cccc1C"
target_under_test = "human serum albumin (HSA) (Homo sapiens, UniProt P02768)"
measurement = 0.13

[[record]]
molecule = "COc1cc2nc(N3CCN(C(=O)C4COc5ccccc5O4)CC3)nc(N)c2cc1OC (centres unmarked)"
target_under_test = "human serum albumin (HSA) (Homo sapiens, UniProt P02768)"
measurement = 1.04

[[record]]
molecule = "COc1cc2nc(N(C)CCCNC(=O)C3CCCO3)nc(N)c2cc1OC (centres unmarked)"
target_under_test = "human serum albumin (HSA) (Homo sapiens, UniProt P02768)"
measurement = 0.08


Give log k HSA for all molecules that follow.
1. CC(C)COCC(CN(Cc1ccccc1)c1ccccc1)N1CCCC1 (centres unmarked)
2. NC(=O)N1c2ccccc2C=Cc2ccccc21 [Carbamazepine]
3. Cc1nccn1CC1CCc2c(c3ccccc3n2C)C1=O (centres unmarked)

Marked response:
1. 1.27
2. 0.07
3. 0.54

From: paper PMC8920097
